Tested on: Tov112D
Assay: Primary qHTS to identify gynecologic anti-cancer compounds using libraries of approved drugs and bioactive compounds (AID 1345084); note: nearly all actives have a fitted effect of over 55% in size; note: potency is the fitted concentration of half-maximal effect
Conditions: Gynecologic cancer cell panel viability, ATPlite luminescence, 48 h; series mostly up to 57.5 µM
Records with an inconclusive call do not appear. Active and inactive are the calls of the source. Calls come from the whole dose curve; as a rule, active = well fitted cell-killing curve with a large enough effect; inconclusive = small, poorly fitted or top-dose-only effect, or effect the other way; inactive = flat fitted curve, though single readings scatter.
Measured parameter: Potency

Solved cases (4 shown):
# Compound, Potency
measured = [
    ("C/C=C/C=C/C(=O)O[C@@H]1C=C2COC(=O)[C@]2(O)[C@@]2(C)CCCC(C)(C)[C@H]12", "inactive"),
    ("CCOc1nc(NC(=O)Cc2cc(OC)ccc2OC)cc(N)c1C#N", "inactive"),
    ("COC1=CC(=O)C[C@@H](C)[C@@]12Oc1c(Cl)c(OC)cc(OC)c1C2=O", "100 nM (active)"),
    ("C/C=C(\\C)C(=O)OC1C(C)C2(O)C(C=C(CO)CC3(O)C(=O)C(C)=CC32)C2C(C)(C)C12OC(=O)C(C)C (stereo not given)", "inactive"),
]

Shifting focus to the compound that follows.
Problem: Return value of Potency for input CCCN1CCC=C(c2cc(-c3ccc(C)cc3)no2)C1 , no commentary.
Result: inactive

----------
Experiment: Primary qHTS for inhibitors of nuclear receptor binding SET domain protein 2 (NSD2) in an isogenic RCH-ACV NSD2 p.E1099K mutant (9B) (AID 1645876); note: nearly all actives have a fitted effect of over 70% in size
Conditions: RCH-ACV NSD2 E1099K (9B) viability, CellTiter-Glo, 72 h; series mostly up to 44.9 µM
Records with an inconclusive call do not appear. Activity calls are given as the source filed them. Calls follow the shape of the dose curve; as a rule, active = well fitted inhibition curve with a large enough effect; inconclusive = small, poorly fitted or top-dose-only effect; inactive = flat fitted curve, though single readings scatter.
Form entry, call: pick from yes (active), no (inactive)

Problem: Each compound tested received a call. Report the one for C/C=C(\C)C(=O)OC1C[C@@]2(COC(C)=O)O[C@H]2/C=C\[C@@]2(C)O[C@@H]2[C@H]2OC(=O)C(COC(C)=O)=C12 (stereo partly specified) .
Result: yes

Problem: For C=C1C(=O)OC2/C=C(\CO)CC/C=C(\C=O)C(OC)C(OC(=O)C(C)CC)C12 (stereo unspecified) , which call appears in the assay record?
Result: yes

Problem: Outcome logged for CCn1c(=O)c(-c2ccc(-c3cncs3)cc2Cl)cc2cnc(Nc3ccc(N4CCN(C)CC4)cc3)nc21 in this assay:
Result: yes

Problem: Dear all, I need the recorded test outcome for CC(=O)OC1C(O)CC2(C)C(CCC3(C)C2CC=C2C4C5(CCC(CO[C@@H]6O[C@H](CO)[C@@H](O)[C@H](O)[C@H]6O)(OC5=O)C4(C)O)C(O)CC23C)C1(C)C (stereo partly specified) , thank you.
Result: no

Problem: I'd appreciate the recorded outcome for CN(c1ccc(NC(=O)Nc2ccccc2)cc1)S(=O)(=O)c1cnn(-c2ccc(F)cc2)c1 from this test.
Result: yes

Problem: Which result was noted for this compound in the test: CC(C)(F)CC(NC(c1ccc(-c2ccc(S(C)(=O)=O)cc2)cc1)C(F)(F)F)C(=O)NC1(C#N)CC1 (stereo unspecified)
Result: no

Problem: In this assay, the call recorded for CCNC(=O)Nc1ccc(-c2nc3c(c(N4CCOCC4C)n2)CCN(C2COC2)C3)cc1 (stereo unspecified) was what?
Result: yes

Problem: So what was the verdict on CC(=O)O[C@@]12CO[C@@H]1C[C@H](O)[C@@]1(C)C(=O)[C@H](O)C3=C(C)[C@@H](OC(=O)[C@H](O)[C@@H](NC(=O)OC(C)(C)C)c4ccccc4)C[C@@](O)([C@@H](OC(=O)c4ccccc4)C12)C3(C)C (stereo partly specified) in this test?
Result: yes

Problem: Fill in: this test's call for C=C(C(=O)O[C@H]1C/C(C)=C/CC/C(CO)=C/[C@H]2OC(=O)C(=C)[C@H]12)C(O)CO (stereo partly specified) is ___
Result: yes

Problem: Any idea what this test logged for CC1(C)Oc2ncnc(N)c2N=C1c1ccc(C23CCC(CC(=O)O)(CC2)CC3)cc1 ?
Result: no

Problem: For this compound, state the assay outcome: N#Cc1cc(C2=Nc3ccc(Br)cc3NC(=O)C2)ccn1
Result: no

Problem: Hi team, can someone confirm the assay call for O=c1cc(N2CCN(c3cccc(C(F)(F)F)c3)CC2)[nH]c(=O)n1C1CCCCC1 ?
Result: no

Problem: Identify the outcome logged in this assay for the compound shown: Cc1[nH]c2ccc(F)cc2c1-c1nc2c3cccnc3c3ncccc3c2[nH]1
Result: yes

Problem: Outcome? C=C1C(=O)OC2C(OC(=O)C=C(C)C)C(C)=C3C(=O)C=C(C)C3C(O)C12 (stereo unspecified)
Result: yes

Problem: Kindly provide the recorded test outcome for the following compound: CCOc1ccc(CCNC(=O)c2cc3sc(Cl)cc3n2C)cc1OCC
Result: no

Problem: Answer briefly: the call reported for C/C(=N\N=C(N)N)c1cc(NC(=O)CCCCCCCCC(=O)Nc2cc(/C(C)=N/N=C(N)N)cc(/C(C)=N/N=C(N)N)c2)cc(/C(C)=N/N=C(N)N)c1 in this assay.
Result: yes

----------
Test system: Tov-21-G
Assay: Primary qHTS to identify gynecologic anti-cancer compounds using libraries of approved drugs and bioactive compounds (AID 1345084); note: nearly all actives have a fitted effect of over 55% in size
Settings: Gynecologic cancer cell panel viability, ATPlite luminescence, 48 h; series mostly up to 57.5 µM
Results filed as inconclusive are left out. Activity calls are given as the source filed them. Calls come from the whole dose curve; as a rule, active = well fitted cell-killing curve with a large enough effect; inconclusive = small, poorly fitted or top-dose-only effect, or effect the other way; inactive = flat fitted curve, though single readings scatter.
Hello, when you answer, please use one of the following outcomes: active, inactive

Problem: // outcome(item) with item = O=C(O)c1cccc(-c2ccc(-c3cn(C(=O)N4CCCCC4Cc4ccccc4)nn3)cc2)c1 (stereo not given)
Result: inactive

Problem: Name the outcome recorded for O=c1ccc2ccc(OCCCCN3CCN(c4cccc5sccc45)CC3)cc2[nH]1 in the assay.
Result: inactive

Problem: Dear all, I need the recorded test outcome for O=S(=O)(NCc1ccccn1)c1ccc(Br)c2ccccc12 , thank you.
Result: inactive

Problem: What did this assay record as the result for O=C(NCc1cccs1)c1cc2nc(-c3ccco3)cc(C(F)(F)Cl)n2n1 ?
Result: inactive

Problem: Field: outcome | Entry: C/C=C(/C)C(=O)O[C@@H]1C[C@@H](OC(=O)CC(C)C)C2(C)C3C(=O)C=C(C)C2C3C1(C)C (stereo not given in full)
Result: inactive

Problem: # lookup: test call for Cc1cc(CS(=O)(=O)c2ccccc2)cc(OCc2ccc(CN3CCCC3CO)cc2)c1 (stereo not given)
Result: inactive

Problem: # outcome recorded in this test, key = COc1ccccc1N1CCN(CC[C@@](C)(C(=O)C2CCCCC2)c2ccccc2)CC1
Result: inactive

Problem: Record request — test call for CC1(C)CN(C(=O)c2ccc(-c3cccc4nc(NC(=O)C5CC5)nn34)cc2)C1
Result: inactive

Problem: For this molecule, state the assay outcome: COc1ccc(NC(=O)c2ccc(-c3ccc(C(=N)N)cc3C)cc2)cc1N1CCN(C)CC1
Result: inactive

Problem: Record request — test call for CN1CCN(C(=O)CN[C@@H]2C[C@H]2c2ccc(OCc3ccccc3)cc2)CC1
Result: inactive

Problem: Lab log entry: Cn1ncnc1[C@H]1c2n[nH]c(=O)c3cc(F)cc(c23)N[C@@H]1c1ccc(F)cc1 — outcome as called in the assay?
Result: inactive

Problem: Fill in: this test's call for O=C(Nc1ccn(Cc2ccc(O)cc2C(F)(F)F)n1)c1c(F)cccc1F is ___
Result: inactive

Problem: Field: outcome | Entry: COc1cc(CCC2=NN=C(NC(=O)c3ccc(N4C[C@@H](C)N[C@@H](C)C4)cc3)C2)cc(OC)c1
Result: active

Problem: So what was the verdict on CN(C)C(CCOc1cccc2ccccc12)c1ccccc1 (stereo not given) in this test?
Result: inactive

Problem: GET /call?item= COc1ccc(CCN(C)CCCOc2nsc(-c3ccccc3)n2)cc1OC returns the recorded outcome of this test.
Result: inactive

Problem: Hi team, can someone confirm the assay call for CC(C)=C1C[C@@]2(C)C(=CC1=O)CC[C@@H](OC(=O)/C(C)=C/CO)[C@@H]2C ?
Result: inactive

Problem: What classification did Nc1ncnc2c1c(-c1ccc(Oc3ccccc3)cc1)nn2[C@@H]1CCCNC1 end up with in this test?
Result: inactive

Problem: Write down the call the test reported for this molecule. Item: C=C1C(=O)OC2CC(C)C(CCC(C)O)=CCC12 (stereo not given)
Result: inactive

Problem: Would you mind telling me which call this test gave O=C(NO)c1ccc(CC(=O)N(CCO)c2ccccc2)cc1 ?
Result: inactive

Problem: Check the results log: what was the call for CCCC(=O)C1(c2ccccc2)CCN(C(=O)[C@@H](Cc2ccc(OC)cc2)NC(=O)[C@@H](N)Cc2cncn2C)CC1 ?
Result: inactive

----------
Assay: Primary qHTS for inhibitors of nuclear receptor binding SET domain protein 2 (NSD2) in an RCH-ACV wild type WT cells (2C) (AID 1645877); note: nearly all actives have a fitted effect of over 70% in size
Conditions: RCH-ACV (leukaemia line) NSD2 WT (2C) viability, CellTiter-Glo, 72 h; series mostly up to 44.9 µM
Inconclusive results are not listed. Calls of active or inactive are those of the source. Calls follow the shape of the dose curve; as a rule, active = well fitted inhibition curve with a large enough effect; inconclusive = small, poorly fitted or top-dose-only effect; inactive = no such curve, though single readings can be large or run the other way.
Write down one outcome, taken from active, inactive

Problem: Dear colleague, could you share the recorded outcome for CN1CCC(c2cn(C)c3ccc(OS(=O)(=O)c4c(F)cccc4F)cc23)CC1 when you have a moment?
Result: active

Problem: Write down the call the test reported for this molecule. Item: OC[C@H]1O[C@@H](OC/C=C/c2ccc(O)cc2)[C@H](O)[C@@H](O)[C@@H]1O
Result: inactive

Problem: Identify the outcome logged in this assay for the molecule shown: NCC1CCN(c2nccc(-c3ccc4ccccc4c3)n2)CC1
Result: active

Problem: Each molecule tested received a call. Report the one for C/C=C(\C)C(=O)O[C@H]1C=CC(=O)O[C@H]1/C=C/[C@@H](O)[C@H](C)O .
Result: active

Problem: I would be grateful if you could indicate the recorded call for COc1ccc(Cl)c(Nc2ncnc3cc(OCC4CCN(C)CC4)c(OC)cc23)c1 .
Result: active

Problem: Outcome? C=C1C(=O)OC2/C=C(/C)C3=CC(=O)C(C)(CC(OC(=O)/C(C)=C/COC(C)=O)C12)O3 (stereo not given)
Result: active

Problem: Outcome? CC(C)OC(=O)N1CCC(Oc2ncnc3c2cnn3-c2ccc(S(C)(=O)=O)cc2F)CC1
Result: inactive

Problem: So what was the verdict on O=C1c2ccc(Nc3ccc(F)cc3F)cc2CCc2ccc(OCC(O)CO)cc21 (stereo not given) in this test?
Result: active

Problem: In this assay, the call recorded for CC(=O)NC[C@H]1CN(c2ccc(N3CCSCC3)c(F)c2)C(=O)O1 was what?
Result: inactive

Problem: In this assay, the call recorded for CCNC(=O)C#Cc1ccc2c(C(=Nc3ccc(CN(C)C)cc3)c3ccccc3)c(O)[nH]c2c1 was what?
Result: active
